Origin of measurements: paper PMC12439480

Assay: in vivo
Parameters: species or system BALB/c nude mice
Conditions: female, BALB/c nude, mouse, iv, 3.7 MBq, total radioactivity, Tumor-to-Muscle ratio (T/M)
Numbered stars: 1 amine (or outer) side, 2 acyl side, 3 side chain; on linkers, the order of the positions; unused ones are H or OH. Square brackets hold non-standard residues; d marks the D form. Peptide text beside a SMILES is read from it. * marks the point of attachment. DOTA = O=C(O)CN1CCN(CC(=O)O)CCN(CC(=O)*)CCN(CC(=O)O)CC1; d(γGlu) = O=C(O)[C@@H](CCC(=O)[*:2])N[*:1]; 1Nal = N[C@@H](Cc1cccc2ccccc12)C(=O)O; NMeNle = CCCC[C@H](NC)C(=O)O; PEG4 = NCCOCCOCCOCCOCCC(=O)O
measurement-name: tissue to tissue ratio at 0.5 h
Lab note: write the figure by itself, no unit.

# query: tissue to tissue ratio at 0.5 h of entry CCCC[C@@H](C(=O)N[C@@H](CC(=O)O)C(=O)N[C@@H](Cc1cccc2ccccc12)C(N)=O)N(C)C(=O)[C@H](Cc1c[nH]c2ccccc12)NC(=O)CCOCCOCCOCCOCCNC(=O)CC[C@@H](NC(=O)CN1CCN(CC(=O)O)CCN(CC(=O)O)CCN(CC(=O)O)CC1)C(=O)O [[68Ga]Ga-DOTA-CCK-66, metal not drawn, reference compound] ({DOTA-d(γGlu)-PEG4}-W[NMeNle]D[1Nal]-NH2)
6.69
